# TEST_SYSTEM: T1, human GIP receptor (human) (UniProt P48546)
# T1 sequence (looked up): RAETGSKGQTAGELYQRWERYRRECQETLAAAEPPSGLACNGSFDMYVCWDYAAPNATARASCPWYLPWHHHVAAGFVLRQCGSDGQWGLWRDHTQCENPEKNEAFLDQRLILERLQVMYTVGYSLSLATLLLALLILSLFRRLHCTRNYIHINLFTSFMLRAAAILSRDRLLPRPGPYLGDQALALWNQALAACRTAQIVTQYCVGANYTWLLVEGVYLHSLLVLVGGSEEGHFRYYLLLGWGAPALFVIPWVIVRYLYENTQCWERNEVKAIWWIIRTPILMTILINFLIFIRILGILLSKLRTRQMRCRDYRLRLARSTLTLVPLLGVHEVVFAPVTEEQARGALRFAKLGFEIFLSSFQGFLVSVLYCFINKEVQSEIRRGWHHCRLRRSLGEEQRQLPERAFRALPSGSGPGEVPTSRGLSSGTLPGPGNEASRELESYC
# METHOD_NOTES: cell-based or functional assay
*1 amine or outer side, *2 acyl side, *3 side chain or, on linkers, in order; H or OH if unused. Where no end group is shown, it is not given here. Side-chain parts run from the residue outwards. [ ]: non-standard residue; d: D form. The star is where a group is joined. Decanoyl(10-(4-HOOC-PhO)) = O=C(O)c1ccc(OCCCCCCCCCC(=O)*)cc1; αMePhe(2-F) = C[C@](N)(Cc1ccccc1F)C(=O)O; γGlu = O=C(O)[C@H](CCC(=O)[*:2])N[*:1]; αMeY = C[C@](N)(Cc1ccc(O)cc1)C(=O)O; αMeL = CC(C)C[C@](C)(N)C(=O)O; Orn = NCCC[C@H](N)C(=O)O; AEEA = NCCOCCOCC(=O)O; Aib = CC(C)(N)C(=O)O
Field: cAMP Emax. Provide a value for each of the binders that follow.
Units required after the number.

Incoming: Write down cAMP Emax measured for item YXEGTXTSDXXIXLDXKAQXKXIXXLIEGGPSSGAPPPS (Y-Aib-EGT-αMeF(2F)-TSD-4Pal-Aib-I-αMeL-LD-Orn-K((2-[2-(2-Amino-ethoxy)-ethoxy]-acetyl)3-(γ-Glu)-CO-(CH2)10-CH3)AQ-Aib-K((2-[2-(2-Amino-ethoxy)-ethoxy]-acetyl)3-(γ-Glu)-CO-(CH2)10-CH3)-αMeF-I-(D-Glu)-αMeY-LIEGGPSSGAPPPS-NH2) [Example 437]
Outgoing: 94.8%

Incoming: Give reported cAMP Emax value for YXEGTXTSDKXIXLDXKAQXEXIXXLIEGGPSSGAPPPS (Y-Aib-EGT-αMeF(2F)-TSDK((2-[2-(2-Amino-ethoxy)-ethoxy]-acetyl)3-(γ-Glu)-CO-(CH2)10-CH3)-Aib-I-αMeL-LD-Orn-K((2-[2-(2-Amino-ethoxy)-ethoxy]-acetyl)3-(γ-Glu)-CO-(CH2)10-CH3)AQ-Aib-E-αMeF-I-(D-Glu)-αMeY-LIEGGPSSGAPPPS-NH2) [Example 436]
Outgoing: 102%

Incoming: Look up and report measured cAMP Emax for this entry: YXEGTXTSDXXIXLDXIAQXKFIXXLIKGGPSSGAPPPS (Y-Aib-EGT-αMeF(2F)-TSD-4Pal-Aib-I-αMeL-LD-Orn-IAQ-Aib-K(2-[2-(2-Amino-ethoxy)-ethoxy]-acetyl)2-(γ-Glu)-(11-(4-carboxyphenoxy)undecanoyl)FI-(D-Glu)-αMeY-LIK((2-[2-(2-Amino-ethoxy)-ethoxy]-acetyl)2-(γ-Glu)-(11-(4-carboxyphenoxy)undecanoyl)GGPSSGAPPPS-NH2)) [Example 331]
Outgoing: 101%

Incoming: Give cAMP Emax for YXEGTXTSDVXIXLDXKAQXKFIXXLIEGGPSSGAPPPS (Y-Aib-EGT-αMeF(2F)-TSDV-Aib-I-αMeL-LD-Orn-K((2-[2-(2-Amino-ethoxy)-ethoxy]-acetyl)2-(10-(4-carboxyphenoxy)decanoyl))AQ-Aib-K((2-[2-(2-Amino-ethoxy)-ethoxy]-acetyl)2-(10-(4-carboxyphenoxy)decanoyl))FI-(D-Glu)-αMeY-LIEGGPSSGAPPPS-NH2) [Example 394]
Outgoing: 97.7%

Incoming: State its cAMP Emax: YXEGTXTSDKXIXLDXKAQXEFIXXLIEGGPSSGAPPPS (Y-Aib-EGT-αMeF(2F)-TSDK((2-[2-(2-Amino-ethoxy)-ethoxy]-acetyl)-(γ-Glu)-CO-(CH2)10-CH3)-Aib-I-αMeL-LD-Orn-K((2-[2-(2-Amino-ethoxy)-ethoxy]-acetyl)-(γ-Glu)-CO-(CH2)10-CH3)AQ-Aib-EFI-(D-Glu)-αMeY-LIEGGPSSGAPPPS-NH2) [Example 425]
Outgoing: 97.6%

Incoming: Answer with the recorded cAMP Emax of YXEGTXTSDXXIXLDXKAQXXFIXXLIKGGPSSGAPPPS (Y-Aib-EGT-αMeF(2F)-TSD-4Pal-Aib-I-αMeL-LD-Orn-K((2-[2-(2-Amino-ethoxy)-ethoxy]-acetyl)2-(γ-Glu)-CO-(CH2)10-CH3)AQ-Aib-4Pal-FI-(D-Glu)-αMeY-LIK((2-[2-(2-Amino-ethoxy)-ethoxy]-acetyl)2-(γ-Glu)-CO-(CH2)10-CH3)GGPSSGAPPPS-NH2) [Example 416] only.
Outgoing: 99%

Incoming: Give me measured cAMP Emax, please, for this binder: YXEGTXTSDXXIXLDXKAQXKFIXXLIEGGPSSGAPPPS (Y-Aib-EGT-αMeF(2F)-TSD-4Pal-Aib-I-αMeL-LD-Orn-K((2-[2-(2-Amino-ethoxy)-ethoxy]-acetyl)2-(γ-Glu)-CO-(CH2)10-CH3)AQ-Aib-K((2-[2-(2-Amino-ethoxy)-ethoxy]-acetyl)2-(γ-Glu)-CO-(CH2)10-CH3)FI-(D-Glu)-αMeY-LIEGGPSSGAPPPS-NH2) [Example 322]
Outgoing: 101%

Incoming: Look up cAMP Emax of YXEGTXTSDKSIXLDXKAQXEXIXXLIEGGPSSGAPPPS (Y-Aib-EGT-αMeF(2F)-TSDK((2-[2-(2-Amino-ethoxy)-ethoxy]-acetyl)2-(γ-Glu)-CO-(CH2)10-CH3)SI-αMeL-LD-Orn-K((2-[2-(2-Amino-ethoxy)-ethoxy]-acetyl)2-(γ-Glu)-CO-(CH2)10-CH3)AQ-Aib-E-αMeF-I-(D-Glu)-αMeY-LIEGGPSSGAPPPS-NH2) [Example 293] and report it.
Outgoing: 102%

Incoming: Retrieve cAMP Emax measured for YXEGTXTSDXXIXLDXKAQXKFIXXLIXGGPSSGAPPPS (Y-Aib-EGT-αMeF(2F)-TSD-4Pal-Aib-I-αMeL-LD-Orn-K((2-[2-(2-Amino-ethoxy)-ethoxy]-acetyl)2-(γ-Glu)-CO-(CH2)10-CH3)AQ-Aib-K((2-[2-(2-Amino-ethoxy)-ethoxy]-acetyl)2-(γ-Glu)-CO-(CH2)10-CH3)FI-(D-Glu)-αMeY-LI-Orn-GGPSSGAPPPS-NH2) [Example 413] and print it.
Outgoing: 101%

Incoming: Output cAMP Emax of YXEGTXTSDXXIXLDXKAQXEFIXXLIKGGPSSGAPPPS (Y-Aib-EGT-αMeF(2F)-TSD-4Pal-Aib-I-αMeL-LD-Orn-K((2-[2-(2-Amino-ethoxy)-ethoxy]-acetyl)-(γ-Glu)-CO-(CH2)12-CO2H)AQ-Aib-EFI-(D-Glu)-αMeY-LIK((2-[2-(2-Amino-ethoxy)-ethoxy]-acetyl)-(γ-Glu)-CO-(CH2)12-CO2H)GGPSSGAPPPS-NH2) [Example 337]
Outgoing: 103%

Incoming: Provide measured cAMP Emax value, entry: Y[Aib]EGT[αMePhe(2-F)]TSDV[Aib]I[αMeL]LD[Orn]K([AEEA-AEEA-Decanoyl(10-(4-HOOC-PhO))])AQ[Aib]EFI[dE][αMeY]LIK([AEEA-AEEA-Decanoyl(10-(4-HOOC-PhO))])GGPSSGAPPPS-NH2 [Example 397]
Outgoing: 94.6%

Incoming: Please look at this binder and report its cAMP Emax: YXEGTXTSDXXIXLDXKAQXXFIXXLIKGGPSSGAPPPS (Y-Aib-EGT-αMeF(2F)-TSD-4Pal-Aib-I-αMeL-LD-Orn-K((2-[2-(2-Amino-ethoxy)-ethoxy]-acetyl)3-(γ-Glu)-CO-(CH2)10-CH3)AQ-Aib-Orn-FI-(D-Glu)-αMeY-LIK((2-[2-(2-Amino-ethoxy)-ethoxy]-acetyl)3-(γ-Glu)-CO-(CH2)10-CH3)GGPSSGAPPPS-NH2) [Example 434]
Outgoing: 98.3%

Incoming: Answer with the recorded cAMP Emax for the binder listed here: YXEGTXTSDXXIXLDXQAQXKFIXXLIKGGPSSGAPPPS (Y-Aib-EGT-αMeF(2F)-TSD-4Pal-Aib-I-αMeL-LD-Orn-QAQ-Aib-K((2-[2-(2-Amino-ethoxy)-ethoxy]-acetyl)2-(γ-Glu)-CO-(CH2)12-CO2H)FI-(D-Glu)-αMeY-LIK((2-[2-(2-Amino-ethoxy)-ethoxy]-acetyl)2-(γ-Glu)-CO-(CH2)12-CO2H)GGPSSGAPPPS-NH2) [Example 488]
Outgoing: 104%

Incoming: // Input: Y[Aib]EGT[αMePhe(2-F)]TSDV[Aib]I[αMeL]LD[Orn]K([AEEA-AEEA-γGlu-Decanoyl(10-(4-HOOC-PhO))])AQ[Aib]EFI[dE][αMeY]LIK([AEEA-AEEA-γGlu-Decanoyl(10-(4-HOOC-PhO))])GGPSSGAPPPS-NH2 [Example 326] . Output its cAMP Emax only.
Outgoing: 102%

Incoming: Return cAMP Emax for the following binder: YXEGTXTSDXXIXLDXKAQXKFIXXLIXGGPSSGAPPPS (Y-Aib-EGT-αMeF(2F)-TSD-4Pal-Aib-I-αMeL-LD-Orn-K((2-[2-(2-Amino-ethoxy)-ethoxy]-acetyl)2-(γ-Glu)-CO-(CH2)12-CO2H)AQ-Aib-K((2-[2-(2-Amino-ethoxy)-ethoxy]-acetyl)2-(γ-Glu)-CO-(CH2)12-CO2H)FI-(D-Glu)-αMeY-LI-Orn-GGPSSGAPPPS-NH2) [Example 406]
Outgoing: 101%

Incoming: Provide cAMP Emax value for the following binder: YXEGTXTSDYXIXLDXKAQXKFIXXLIXGGPSSGAPPPS (Y-Aib-EGT-αMeF(2F)-TSDY-Aib-I-αMeL-LD-Orn-K((2-[2-(2-Amino-ethoxy)-ethoxy]-acetyl)2-(γ-Glu)-(10-(4-carboxyphenoxy)decanoyl))AQ-Aib-K((2-[2-(2-Amino-ethoxy)-ethoxy]-acetyl)2-(γ-Glu)-(10-(4-carboxyphenoxy)decanoyl))FI-(D-Glu)-αMeY-LI-Orn-GGPSSGAPPPS-NH2) [Example 409]
Outgoing: 99.2%

Incoming: Please look at this binder and report its cAMP Emax: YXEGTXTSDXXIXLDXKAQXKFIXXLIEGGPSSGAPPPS (Y-Aib-EGT-αMeF(2F)-TSD-4Pal-Aib-I-αMeL-LD-Orn-K((2-[2-(2-Amino-ethoxy)-ethoxy]-acetyl)-(γ-Glu)-CO-(CH2)10-CH3)AQ-Aib-K((2-[2-(2-Amino-ethoxy)-ethoxy]-acetyl)-(γ-Glu)-CO-(CH2)10-CH3)FI-(D-Glu)-αMeY-LIEGGPSSGAPPPS-NH2) [Example 426]
Outgoing: 93.3%

Incoming: State, in one line, measured cAMP Emax of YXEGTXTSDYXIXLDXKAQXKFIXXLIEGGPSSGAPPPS (Y-Aib-EGT-αMeF(2F)-TSDY-Aib-I-αMeL-LD-Orn-K((2-[2-(2-Amino-ethoxy)-ethoxy]-acetyl)-(γ-Glu)-CO-(CH2)12-CO2H)AQ-Aib-K((2-[2-(2-Amino-ethoxy)-ethoxy]-acetyl)-(γ-Glu)-CO-(CH2)12-CO2H)FI-(D-Glu)-αMeY-LIEGGPSSGAPPPS-NH2) [Example 366]
Outgoing: 108%

Incoming: Indicate the recorded cAMP Emax value for this binder: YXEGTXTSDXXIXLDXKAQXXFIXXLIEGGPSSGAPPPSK (Y-Aib-EGT-αMeF(2F)-TSD-4Pal-Aib-I-αMeL-LD-Orn-K((2-[2-(2-Amino-ethoxy)-ethoxy]-acetyl)3-(γ Glu)-CO-(CH2)10CH3)AQ-Aib-Orn-FI-(D-Glu)-αMeY-LIEGGPSSGAPPPSK((2-[2-(2-Amino-ethoxy)-ethoxy]-acetyl)3-(γ-Glu)-CO-(CH2)10-CH3)-NH2) [Example 435]
Outgoing: 104%

Incoming: For the binder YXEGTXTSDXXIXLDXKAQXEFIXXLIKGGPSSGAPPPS (Y-Aib-EGT-αMeF(2F)-TSD-4Pal-Aib-I-αMeL-LD-Orn-K((2-[2-(2-Amino-ethoxy)-ethoxy]-acetyl)3-(γ-Glu)-CO-(CH2)10-CH3)AQ-Aib-EFI-(D-Glu)-αMeY-LIK((2-[2-(2-Amino-ethoxy)-ethoxy]-acetyl)3-(γ-Glu)-CO-(CH2)10-CH3)GGPSSGAPPPS-NH2) [Example 423] , give its reported cAMP Emax.
Outgoing: 104%

Incoming: Quote cAMP Emax reported for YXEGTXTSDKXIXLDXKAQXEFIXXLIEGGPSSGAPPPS (Y-Aib-EGT-αMeF(2F)-TSDK((2-[2-(2-Amino-ethoxy)-ethoxy]-acetyl)3-(γ-Glu)-CO-(CH2)10-CH3)-Aib-I-αMeL-LD-Orn-K((2-[2-(2-Amino-ethoxy)-ethoxy]-acetyl)3-(γ-Glu)-CO-(CH2)10-CH3)AQ-Aib-EFI-(D-Glu)-αMeY-LIEGGPSSGAPPPS-NH2) [Example 421] please.
Outgoing: 100%

Incoming: Determine from records and report cAMP Emax for Y[Aib]EGT[αMePhe(2-F)]TSDV[Aib]I[αMeL]LD[Orn]K([AEEA-AEEA-γGlu-Decanoyl(10-(4-HOOC-PhO))])AQ[Aib]K([AEEA-AEEA-γGlu-Decanoyl(10-(4-HOOC-PhO))])FI[dE][αMeY]LI[Orn]GGPSSGAPPPS-NH2 [Example 410]
Outgoing: 99.1%
